MEASURED_ON: human GCGR (Homo sapiens, UniProt P47871)
Construct: expressed in transfected cells
Sequence (P47871 26-477): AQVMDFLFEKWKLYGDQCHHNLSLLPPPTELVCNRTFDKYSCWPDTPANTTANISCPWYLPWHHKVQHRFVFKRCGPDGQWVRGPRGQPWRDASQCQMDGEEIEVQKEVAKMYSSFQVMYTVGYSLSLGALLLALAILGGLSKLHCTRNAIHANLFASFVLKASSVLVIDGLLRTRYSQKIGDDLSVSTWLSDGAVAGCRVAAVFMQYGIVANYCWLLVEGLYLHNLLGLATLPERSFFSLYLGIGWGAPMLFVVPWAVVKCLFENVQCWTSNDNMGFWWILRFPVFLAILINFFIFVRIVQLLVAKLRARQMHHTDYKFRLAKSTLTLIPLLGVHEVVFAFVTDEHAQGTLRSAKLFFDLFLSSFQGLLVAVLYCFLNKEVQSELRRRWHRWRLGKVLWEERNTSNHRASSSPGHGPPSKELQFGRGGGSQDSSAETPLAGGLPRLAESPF
TEST_SUMMARY: cAMP activity assay (HitHunter cAMP XS), cells expressing human GCGR
Type: cell-based
CONDITIONS: Table 2; cAMP production; read-out: EC50 hGCGR
No end group written: not given here.
EC50 reference
Provide the measurement as a number trailed by its unit.

H-HSQGTFFSDYSKYLDSRRAQDFVQWLLET-NH2 [PD58] = 0.03 nM
H-HSQGTFTSDYSKYLDSIRAQDFVQWLMDT-NH2 [PD36] = 0.04 nM
HSQGTFTSDYSKYLDSRMAYDFVQWLMNT-NH2 [PD56] = 0.08 nM
H-HSQGIFFSDYSKYLDSRRAQDFVQWLMNT-NH2 [PD52] = 0.03 nM
HSQGTFTSDYSKYLDSKRAHDFVQWLLNT-NH2 [PD45] = 0.03 nM
H-HSQGTFTSDYSKYLDSRRAHDFVQWLLNT-NH2 [PD29] = 0.02 nM
H-HSQGTFTSDYSKYLDSLMAQDFVQWLMST-NH2 [PD22] = 0.02 nM

Now consider a different substance.
Input HSQGTFTSDYSKYLDELRAYDFVQWLMNT-NH2 [PD27] . Output EC50: 0.05 nM
